- TARGET OR SYSTEM: MERS-CoV 3CLpro (Middle East respiratory syndrome-related coronavirus)
VALUE TYPE: IC50

1. CC(C)(C)COC(=O)N[C@H]1CCCC[C@H]2CNC(=O)[C@H]2C[C@@H](C#N)NC(=O)[C@@H]2[C@@H]3[C@H](CN2C1=O)C3(C)C; 0.1 to 1 µM
2. CC(C)C[C@@H]1NC(=O)CCCCC[C@@H]2CNC(=O)[C@H]2C[C@@H](C=O)NC1=O; > 20 µM
3. CC(C)C[C@@H]1NC(=O)[C@H](Cc2ccccc2)CCC[C@H]2CNC(=O)[C@H]2C[C@@H](C=O)NC1=O; 1 to 20 µM
4. CC1(C)[C@@H]2[C@H]3C(=O)N[C@H](C#N)C[C@@H]4C(=O)NC[C@@H]4CCCC[C@H](NS(=O)(=O)c4ccccc4)C(=O)N3C[C@@H]21; < 0.1 µM

* * *

Lab note: IC50 readings collected with MERS-CoV 3CLpro (Middle East respiratory syndrome-related coronavirus, UniProt K9N638) for the following compounds.
Sequence (K9N638 3248-3553 limits assumed): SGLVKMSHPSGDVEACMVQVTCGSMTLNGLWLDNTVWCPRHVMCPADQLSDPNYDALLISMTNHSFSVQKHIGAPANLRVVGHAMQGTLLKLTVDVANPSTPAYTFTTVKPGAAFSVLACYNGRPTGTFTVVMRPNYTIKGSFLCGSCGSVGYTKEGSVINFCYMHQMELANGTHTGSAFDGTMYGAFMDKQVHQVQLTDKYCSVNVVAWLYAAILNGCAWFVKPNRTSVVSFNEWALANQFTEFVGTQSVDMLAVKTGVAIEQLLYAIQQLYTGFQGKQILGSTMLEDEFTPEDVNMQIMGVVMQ
VALUE TYPE: IC50

1) CC(C)C[C@@H]1NC(=O)[C@@H](NC(=O)C(C)(C)C)CC/C=C/[C@H]2CNC(=O)[C@H]2C[C@@H](C#N)NC1=O [Example 58]; 100 to 1000 nM
2) CC1(C)[C@@H]2[C@H]3C(=O)N[C@H](C#N)C[C@@H]4C(=O)NC[C@@H]4CCCC[C@H](NC(=O)OC4(C(F)(F)F)CCC4)C(=O)N3C[C@@H]21 [Example 152]; < 100 nM
3) CC(C)(C)OC(=O)N[C@H]1CC/C=C/[C@H]2CCNC(=O)[C@H]2C[C@@H](C#N)NC(=O)[C@@H]2[C@H]3CCC[C@H]3CN2C1=O [Example 99]; 1000 to 20000 nM
4) CC(C)C[C@@H]1NC(=O)[C@@H](NC(=O)OC(C)(C)C)CCCC[C@H]2CNC(=O)[C@H]2C[C@@H](C#N)NC1=O [Example 56]; 100 to 1000 nM
5) CC(C)(C)C(=O)N[C@H]1CC/C=C/[C@H]2CNC(=O)[C@H]2C[C@@H](C#N)NC(=O)[C@@H]2[C@@H]3[C@H](CN2C1=O)C3(C)C [Example 61]; < 100 nM
6) CC(C)(C)OC(=O)N[C@H]1CCCC[C@H]2CNC(=O)[C@H]2C[C@@H](C#N)NC(=O)[C@@H]2CC3(CC3)CN2C1=O [Example 105]; 100 to 1000 nM
7) CC1(C)[C@@H]2[C@H]3C(=O)N[C@H](C#N)C[C@@H]4C(=O)NC[C@@H]4/C=C/CC[C@H](NC(=O)C4CC(F)(F)C4)C(=O)N3C[C@@H]21 [Example 83]; < 100 nM

* * *

Please consider the recorded pIC50 for MERS-CoV 3CLpro (Middle East respiratory syndrome-related coronavirus) in what follows.
pIC50: −log10 of the molar value.
VALUE TYPE: pIC50

1. CC1(C(=O)N[C@H]2CCCC[C@H]3CNC(=O)[C@H]3C[C@@H](C#N)NC(=O)[C@@H]3[C@@H]4[C@H](CN3C2=O)C4(C)C)COC1; 6.00 to 7.00
2. CC1(C)[C@@H]2[C@H]3C(=O)N[C@H](C#N)C[C@H]4C(=O)NC[C@@H]4CCCCC(=O)N3C[C@@H]21; 4.70 to 6.00
3. CC(C)(C)OC(=O)N[C@H]1CCCC[C@H]2CNC(=O)[C@H]2C[C@@H](C#N)NC(=O)[C@@H]2[C@H]3CC[C@H](CC3)N2C1=O; 6.00 to 7.00
